test_target: UniProtKB Q06710
Sequence (Q06710 whole entry): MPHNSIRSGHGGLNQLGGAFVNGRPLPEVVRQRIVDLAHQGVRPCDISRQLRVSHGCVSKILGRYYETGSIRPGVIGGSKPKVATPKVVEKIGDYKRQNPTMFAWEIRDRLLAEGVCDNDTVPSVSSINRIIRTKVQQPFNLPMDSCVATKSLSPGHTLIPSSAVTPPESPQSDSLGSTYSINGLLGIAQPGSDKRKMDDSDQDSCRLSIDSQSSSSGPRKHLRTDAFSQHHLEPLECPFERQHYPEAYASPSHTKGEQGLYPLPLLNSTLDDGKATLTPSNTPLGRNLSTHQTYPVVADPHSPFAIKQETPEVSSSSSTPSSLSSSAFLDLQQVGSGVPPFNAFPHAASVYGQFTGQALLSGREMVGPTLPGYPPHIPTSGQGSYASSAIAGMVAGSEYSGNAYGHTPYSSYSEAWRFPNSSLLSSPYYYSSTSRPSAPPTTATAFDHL
protocol_summary: PAX8 transcriptional activity inhibition in RMG-I – RMG-I cells, luciferase, cherry-pick, dose response (AID 687027);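 also: luciferase reporter driven by Pax8 target thyroperoxidase promoter measured by SteadyGlo luminescence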
Assay type: functional, cell-based
Activity calls are given as the source filed them.
experimental_readout: AC50

Example cases with answers are listed next.
For the compound shown here, C[C@@H]1CN([C@H](C)CO)C(=O)c2cc(NC(=O)Nc3ccc4c(c3)OCO4)ccc2O[C@@H](C)CCCCO[C@H]1CN(C)Cc1ccc(C(F)(F)F)cc1 , give the reported AC50.
8.35 µM (active)

For the compound shown here, C[C@H]1CCCCO[C@H](CN(C)Cc2ccc(Cl)c(Cl)c2)[C@@H](C)CN([C@@H](C)CO)C(=O)c2cc(NC(=O)Nc3ccccc3)ccc2O1 , give the reported AC50.
13.1 µM (active)

Please look at the following compound next.
For the compound shown here, O=C(C[C@@H]1CC[C@H]2[C@@H](COC[C@@H](O)CN2Cc2cccc(F)c2)O1)NCC1CCCCC1 , give the reported AC50.
34 µM (active)

###

protocol_summary: Luminescence Cell-Based Dose Response HTS to Identify Activators of Luciferase Translation or Activity in H4 […] Cells. [Related pubchem assays: 1829 (Project Summary), 1814 (Primary HTS)]
Type: functional
Active and inactive are the calls of the source.
Hi there, I'd appreciate the recorded EC50 for every entry that follows.

Example cases with answers are listed next.
For the compound shown here, O=C(Nc1ccc2nc(-c3ccco3)c(-c3ccco3)nc2c1)NC1CC1 , give the reported EC50.
13.2 µM (active)

For the compound shown here, Fc1ccc(/C=N/NC2=Nc3cccc4cccc2c34)cc1 , give the reported EC50.
< 0.1 µM (inconclusive)

For the compound shown here, FC(F)(F)c1ccc(Nc2nnnc3ccccc23)cc1 , give the reported EC50.
38 µM (active)

For the compound shown here, NC(=O)c1ccccc1/N=C/c1ccc2ccccc2c1 , give the reported EC50.
1.14 µM (active)

Continuing:
For the compound shown here, O=C(NC(=S)NC1CCCCCC1)c1cncc(Br)c1 , give the reported EC50.
76.3 µM (active)

###

protocol_summary: NIH3T3 cell viability loss – ATP luminescence, mouse fibroblasts, counter-screen, dose response (AID 2010);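 also: cells exposed to compound for about 90 hours before reading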
Type: functional, cell-based
experimental_readout: EC50

Example cases with answers are listed next.
For the compound shown here, CN(C)CCN(C(=O)CN1C(=O)c2ccccc2C1=O)c1nc2cc3c(cc2s1)OCCO3 , give the reported EC50.
> 60 µM (not active)

For the compound shown here, CN1c2ccc([N+](=O)[O-])cc2N(C)C1(C)c1ccccc1 (configuration not stated) , give the reported EC50.
> 60 µM (not active)

For the compound shown here, COc1cccc(-n2c(CN3CCN(c4cccc(C)c4)C(C)C3)nc3ccc([N+](=O)[O-])cc3c2=O)c1 (configuration not stated) , give the reported EC50.
> 60 µM (not active)

For the compound shown here, Cc1ccccc1NC(=O)NCC1CCN(Cc2cccc(Cl)c2)CC1 , give the reported EC50.
> 30 µM (not active)

For the compound shown here, COc1ccc2[nH]c(C)c(CCN(Cc3cccs3)C(S)=Nc3ccc(F)cc3)c2c1 , give the reported EC50.
> 60 µM (not active)

List the reported EC50 of each compound below.
1. O=C(NCCc1c[nH]cn1)c1ccc(-c2ccccc2)cc1
2. CCN(CC)c1ccc(/N=C/c2cc(Br)ccc2O)cc1

> 30 µM (not active)
> 60 µM (inconclusive)

###

test_target: Cytochrome P450 3A4 (Homo sapiens, UniProt P08684);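 also: CYP3A4 tested as one member of a cytochrome P450 panel screen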
Sequence (P08684 whole entry): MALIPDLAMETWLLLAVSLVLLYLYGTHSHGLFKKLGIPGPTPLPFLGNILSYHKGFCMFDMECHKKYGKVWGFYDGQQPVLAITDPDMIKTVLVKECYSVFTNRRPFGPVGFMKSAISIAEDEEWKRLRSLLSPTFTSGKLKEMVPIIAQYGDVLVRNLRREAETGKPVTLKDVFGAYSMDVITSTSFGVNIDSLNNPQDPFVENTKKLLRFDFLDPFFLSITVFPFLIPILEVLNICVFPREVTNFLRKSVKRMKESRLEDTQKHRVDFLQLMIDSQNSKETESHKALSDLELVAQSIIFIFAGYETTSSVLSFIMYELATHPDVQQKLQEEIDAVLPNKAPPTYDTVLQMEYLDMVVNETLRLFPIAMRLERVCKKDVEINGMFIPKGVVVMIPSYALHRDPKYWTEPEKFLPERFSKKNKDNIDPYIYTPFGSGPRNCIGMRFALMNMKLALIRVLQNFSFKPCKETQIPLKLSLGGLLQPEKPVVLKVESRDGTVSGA
Hi there, I'd appreciate the recorded AC50 for every entry that follows.

Example cases with answers are listed next.
What measured AC50 is associated with N=c1n(-c2ccccc2)c(O)cc(=O)n1-c1ccccc1 on Cytochrome P450 3A4 (Homo sapiens, UniProt P08684)?
25.1 µM (inconclusive)

What measured AC50 is associated with CCOC(=O)/C(C#N)=C1/SC(CC)C(=O)N1c1ccc(Br)cc1 (centres undefined) on Cytochrome P450 3A4 (Homo sapiens, UniProt P08684)?
28.2 µM (inconclusive)

List the reported AC50 of each compound below.
1. Cc1ccccc1NC(=O)OCc1cn(-c2ccc(Cl)cc2)nn1
2. COc1ccc(CNCCc2ccccc2)cc1OCC(N)=O

0.794 µM (inconclusive)
17.8 µM (inconclusive)

###

Hi there, I'd appreciate the recorded IC50 for every entry that follows.
test_target: Polyadenylate-binding protein 1 (Homo sapiens, UniProt P11940)
Sequence (P11940 whole entry, the tested form may be a part): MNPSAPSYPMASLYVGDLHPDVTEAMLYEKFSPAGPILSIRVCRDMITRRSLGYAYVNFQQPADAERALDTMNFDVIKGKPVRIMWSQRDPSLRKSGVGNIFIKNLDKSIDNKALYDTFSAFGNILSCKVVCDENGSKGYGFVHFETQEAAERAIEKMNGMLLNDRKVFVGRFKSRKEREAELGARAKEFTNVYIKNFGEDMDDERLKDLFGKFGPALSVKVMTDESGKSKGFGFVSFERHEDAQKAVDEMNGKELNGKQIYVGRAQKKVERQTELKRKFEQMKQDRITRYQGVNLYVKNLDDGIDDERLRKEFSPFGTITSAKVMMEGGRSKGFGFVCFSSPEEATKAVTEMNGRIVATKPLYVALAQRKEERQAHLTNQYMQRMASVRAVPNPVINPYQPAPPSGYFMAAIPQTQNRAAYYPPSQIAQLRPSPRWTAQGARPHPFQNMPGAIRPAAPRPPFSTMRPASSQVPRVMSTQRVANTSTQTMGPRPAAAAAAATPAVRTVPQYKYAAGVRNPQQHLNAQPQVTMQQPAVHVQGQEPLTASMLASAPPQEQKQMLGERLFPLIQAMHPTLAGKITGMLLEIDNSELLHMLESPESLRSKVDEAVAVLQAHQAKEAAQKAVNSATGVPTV
protocol_summary: MLLE domain peptide-binding blockers, IC50 – biochemical, fluorescence polarization, FITC-PAM2 peptide, dose response (AID 602259)
Type: functional
measurement_parameters: read-out: IC50_Mean
The source made the active and inactive calls.

What measured IC50 is associated with COC(=O)c1c(NC(=O)c2ccc(C)o2)sc2c1CCCCC2 on Polyadenylate-binding protein 1 (Homo sapiens, UniProt P11940)?
> 66 µM (inactive)

What measured IC50 is associated with O=C(Nc1ccc2nc(-c3ccco3)c(-c3ccco3)nc2c1)N1CCN(c2ccccn2)CC1 on Polyadenylate-binding protein 1 (Homo sapiens, UniProt P11940)?
> 66 µM (inactive)

What measured IC50 is associated with N#C/C(=C\c1ccccc1[N+](=O)[O-])C(=O)NC1CCCCC1 on Polyadenylate-binding protein 1 (Homo sapiens, UniProt P11940)?
> 66 µM (inactive)

What measured IC50 is associated with O=C(CSc1ncn(-c2ccccc2)n1)Nc1ccc2c(c1)OCCO2 on Polyadenylate-binding protein 1 (Homo sapiens, UniProt P11940)?
> 66 µM (inactive)

List the reported IC50 of each compound below.
1. COc1ccc(C(=O)NC(=S)Nc2nc(C)c(C(=O)N(C)C)s2)cc1
2. Cc1ccnc(N2C(=O)c3cccc4c([N+](=O)[O-])ccc(c34)C2=O)c1

["> 66 µM (inactive)", "23.4 µM (inactive)"]

List the reported IC50 of each compound below.
1. O=C(CSc1nccc(=O)[nH]1)N1CCCc2ccccc21
2. Nc1nnnn1/N=C/c1cc(Cl)ccc1O
3. COc1ccc(Nc2ccc([N+](=O)[O-])cn2)cn1

["> 66 µM (inactive)", "38.8 µM (inactive)", "59.6 µM (inactive)"]

###

Hi there, I'd appreciate the recorded IC50 for every entry that follows.
test_target: DNA dC->dU-editing enzyme APOBEC-3G (Homo sapiens)
Sequence (Q9HC16 whole entry): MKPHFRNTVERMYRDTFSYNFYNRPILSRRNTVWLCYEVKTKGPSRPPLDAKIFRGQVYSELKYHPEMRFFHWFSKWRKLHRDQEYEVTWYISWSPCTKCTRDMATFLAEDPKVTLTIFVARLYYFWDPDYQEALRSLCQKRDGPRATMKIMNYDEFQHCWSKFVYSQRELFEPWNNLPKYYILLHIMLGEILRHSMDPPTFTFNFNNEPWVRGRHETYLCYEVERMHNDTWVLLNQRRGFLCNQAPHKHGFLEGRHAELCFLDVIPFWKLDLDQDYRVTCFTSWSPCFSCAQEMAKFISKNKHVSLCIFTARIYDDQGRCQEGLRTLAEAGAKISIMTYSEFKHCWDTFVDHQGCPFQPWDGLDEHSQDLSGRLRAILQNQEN
protocol_summary: Dose Response confirmation of small molecule APOBEC3G DNA Deaminase Inhibitors via a fluorescence-based single-stranded DNA deaminase assay. [Related pubchem assays (depositor defined):AID493012, AID493028]
Format: functional
Activity calls are given as the source filed them.

Example cases with answers are listed next.
For the compound shown here, Cc1ccc(C)n1-c1n[nH]c(=S)[nH]1 , give the reported IC50.
6.12 µM (active)

For the compound shown here, CCS(=O)(=O)c1ccc2oc(Nc3ccc(C(C)C)cc3)nc2c1 , give the reported IC50.
20.7 µM (active)

For the compound shown here, Fc1ccccc1/C=N/n1c(S)nnc1-c1cccnc1 , give the reported IC50.
3.16 µM (active)

For the compound shown here, Nn1c(COc2ccc(Cl)cc2)n[nH]c1=S , give the reported IC50.
2.49 µM (active)

Please look at the following compound next.
For the compound shown here, Cc1ccc(/C=N/n2c(S)nnc2-c2ccncc2)o1 , give the reported IC50.
6.55 µM (active)

###

test_target: Heat shock factor protein 1 (Mus musculus, UniProt P38532)
Sequence (P38532 whole entry): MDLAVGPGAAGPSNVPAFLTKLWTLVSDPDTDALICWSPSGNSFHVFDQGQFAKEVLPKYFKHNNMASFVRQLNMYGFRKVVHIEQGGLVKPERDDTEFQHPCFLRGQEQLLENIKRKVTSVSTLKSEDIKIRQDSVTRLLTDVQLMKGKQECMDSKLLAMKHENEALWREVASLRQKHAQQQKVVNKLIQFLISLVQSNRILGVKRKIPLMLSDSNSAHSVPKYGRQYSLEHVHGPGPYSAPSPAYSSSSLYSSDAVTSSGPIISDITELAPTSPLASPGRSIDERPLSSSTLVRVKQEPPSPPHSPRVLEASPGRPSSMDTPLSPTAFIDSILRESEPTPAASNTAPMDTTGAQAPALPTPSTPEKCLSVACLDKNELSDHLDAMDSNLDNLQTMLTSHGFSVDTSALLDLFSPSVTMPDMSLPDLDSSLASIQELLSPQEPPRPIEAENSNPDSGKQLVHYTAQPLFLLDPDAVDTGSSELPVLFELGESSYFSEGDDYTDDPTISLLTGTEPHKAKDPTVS
protocol_summary: enhancement of HSF1-driven luciferase signal – cell-based, NIH3T3, luminescence, dose retest, confirmation (AID 435004);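 also: stress induced by proteasome inhibitor MG132 added 30 min after compound; luciferase reporter driven by HSF1 response element in NIH3T3 cells; actives raise luminescence as potentiators of the MG132 stress response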
Type: functional
The source made the active and inactive calls.
Outcome (select one): active, inactive

Example results:
Test call for this compound, please: COc1ccc(S(=O)(=O)N2CCC(C(=O)NCc3cccnc3)CC2)cc1C
inactive

Test call for this compound, please: Fc1cc(NCc2ccccc2)nc(NCc2ccccc2)n1
active

Test call for this compound, please: Cc1ccnc(N2CCCC(C(=O)Nc3ccc(C)c(C)c3)C2)n1 (stereo not given)
inactive

Test call for this compound, please: CC1=Nc2cc(C(=O)O)ccc2Sc2c(C)ccc(C)c21
inactive

Test call for this compound, please: CCC(C)c1ccccc1NC(=O)c1cc(C)no1 (stereo not given)
inactive

Continuing:
Test call for this compound, please: CCc1ccccc1NC1=NCC(=O)N1C1CCCCC1
inactive

Test call for this compound, please: CCCCCn1c(N2CCN(c3cccc(Cl)c3)CC2)nc2c1c(=O)[nH]c(=O)n2C
inactive

Test call for this compound, please: O=C(NCc1ccc(N2CCCC2=O)cc1)Nc1ccccc1
inactive

Test call for this compound, please: Cc1ccc(CN2CCN(/N=C/c3ccc(C)s3)CC2)c(C)c1
inactive

###

test_target: Rac GTPase-activating protein 1 (Homo sapiens, UniProt Q9H0H5)
Sequence (Q9H0H5 whole entry): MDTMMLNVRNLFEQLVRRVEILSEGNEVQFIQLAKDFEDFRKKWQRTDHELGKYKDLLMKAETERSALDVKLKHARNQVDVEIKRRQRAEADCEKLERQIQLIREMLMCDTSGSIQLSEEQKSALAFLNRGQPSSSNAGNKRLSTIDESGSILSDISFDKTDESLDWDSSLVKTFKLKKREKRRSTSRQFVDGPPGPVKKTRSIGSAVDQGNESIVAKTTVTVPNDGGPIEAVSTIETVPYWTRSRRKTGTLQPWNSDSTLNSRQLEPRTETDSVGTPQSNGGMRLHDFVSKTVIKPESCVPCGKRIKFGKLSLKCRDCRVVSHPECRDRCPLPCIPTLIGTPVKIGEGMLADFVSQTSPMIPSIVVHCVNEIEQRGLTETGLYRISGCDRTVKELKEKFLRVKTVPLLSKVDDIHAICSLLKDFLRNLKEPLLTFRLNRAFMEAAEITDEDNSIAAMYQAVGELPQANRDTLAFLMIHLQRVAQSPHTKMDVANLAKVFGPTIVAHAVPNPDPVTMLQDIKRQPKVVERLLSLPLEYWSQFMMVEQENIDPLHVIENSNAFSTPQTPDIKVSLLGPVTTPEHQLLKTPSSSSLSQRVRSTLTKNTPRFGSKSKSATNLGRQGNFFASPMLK
protocol_summary: blockers of MgcRacGAP-driven Rac1 GTP hydrolysis – biochemical, ADP Hunter fluorescence, primary and confirmatory, confirmation (AID 624330)
Assay type: functional
Activity calls are given as the source filed them.
Hi there, I'd appreciate the recorded IC50 for every entry that follows.

Example cases with answers are listed next.
For the compound shown here, COc1cc(/C=N/Nc2nc(N3CCCC3)nc(N3CCCC3)n2)ccc1O , give the reported IC50.
64.3 µM (active)

For the compound shown here, Brc1ccc(OCCCN2CCOCC2)cc1 , give the reported IC50.
123 µM (active)

For the compound shown here, Cc1ccc(C2=NN=C(NC(=O)CSc3nncn3C)SC2)cc1 , give the reported IC50.
256 µM (active)

For the compound shown here, C[n+]1c(-c2ccc(C=NNC(=O)c3ccc(C(=O)NN=Cc4ccc(-c5cn6ccccc6[n+]5C)cc4)cc3)cc2)cn2ccccc21 , give the reported IC50.
66.4 µM (active)

For the compound shown here, CCOc1cccc(CNc2ccc(O)cc2)c1OCc1ccc(Cl)cc1Cl , give the reported IC50.
118 µM (active)

List the reported IC50 of each compound below.
1. COc1ccc(NCc2ccc([N+](=O)[O-])s2)c(OC)c1
2. COc1cc(/C=C/C(=O)OCC(=O)Nc2cc(S(=O)(=O)N3CCCCC3)ccc2C)ccc1O
3. O=C(CN1CCN(Cc2ccccc2)CC1)NC(c1ccccc1)c1ccccc1
4. COc1ccc(CN2CCN(CCSc3ccc(C)cc3)CC2)c(OC)c1OC
5. COc1cc2c(cc1OC)C(/C=C/c1ccco1)=NCC2

1: 34.4 µM (active); 2: 68.1 µM (active); 3: 77.1 µM (active); 4: 80 µM (active); 5: 42.3 µM (active)

List the reported IC50 of each compound below.
1. COc1cc(Sc2ccc(C)cc2)c(OC)cc1N
2. CCN=C(S)Nc1cc2oc3ccccc3c2cc1OC
3. CC1=NOC(=O)/C1=C\c1ccc(-c2ccc(Cl)c(C(=O)O)c2)o1

24.8 µM (active)
99.9 µM (active)
141 µM (active)
